Recorded values, source PubChem BioAssay AID1645848.

details: buffer; pH 7.4; 6.0 h; 150.0 µM
Recorded solubility kinetic values for a group of compounds are listed next.

See these solved cases before continuing.
Problem: Give solubility kinetic for the following compound: `COc1ccc(NS(=O)(=O)c2ccc(C)cc2)c(C(=O)Nc2nc(-c3ccccc3)cs2)c1`
Result: < 1 µg/mL

Problem: Give solubility kinetic for the following compound: `COc1oc(-c2cccc3ccccc23)nc1C(=O)O`
Result: > 40 µg/mL

Problem: Give solubility kinetic for the following compound: `COc1ccc(OC)c(C(=O)Nc2nc(-c3ccccc3)cs2)c1`
Result: < 1 µg/mL

Problem: Give solubility kinetic for the following compound: O=C1CCCC2=C1C(c1ccccc1I)N=C(Nc1nc3ccccc3o1)N2 (stereo not given)
Result: < 1 µg/mL

Kindly consider the entry below.
Problem: Give solubility kinetic for the following compound: `COc1cc2c(cc1OCCCN1CCCC1)N=C(N)C21CCC1`
Result: > 49 µg/mL

----------
Recorded solubility kinetic values for a group of compounds are listed next.
details: buffer; pH 7.4; 6.0 h; 150.0 µM

Problem: Give solubility kinetic for the following compound: O=C1Nc2ccccc2C1Cc1cc(Cl)c(O)c(Cl)c1 (stereo unspecified)
Result: > 45 µg/mL

Problem: Give solubility kinetic for the following compound: `Fc1ccc(Nc2nc(-c3ccnc(C(F)(F)F)c3)nc3ccccc23)cc1F`
Result: < 1 µg/mL

Problem: Give solubility kinetic for the following compound: `COc1ccc(C)cc1NC(=O)c1cnc(-c2ccc(F)cc2)nc1-c1ccncc1`
Result: < 1 µg/mL

New cases:
Problem: Give solubility kinetic for the following compound: `O=C1NC(=O)C(c2cnc3ccccn23)=C1c1cn2c3c(cccc13)CN(C(=O)N1CCOCC1)CC2`
Result: > 73 µg/mL

Problem: Give solubility kinetic for the following compound: `Cn1ccc2c(C(=O)NCCC(N)=O)nc(-c3cccc(CO)c3)cc21`
Result: > 78 µg/mL

Problem: Give solubility kinetic for the following compound: `Cc1ccc(S(=O)(=O)Nc2ccncc2C(=O)Nc2nc(-c3ccccc3)cs2)cc1`
Result: < 1 µg/mL

----------
Recorded solubility kinetic values for a group of compounds are listed next.
details: buffer; pH 7.4; 6.0 h; 150.0 µM

See these solved cases before continuing.
Problem: Give solubility kinetic for the following compound: `COc1ccc(Cn2c(C(=O)O)c(CNCc3ccco3)c3ccc(C)cc32)cc1`
Result: > 60 µg/mL

Problem: Give solubility kinetic for the following compound: `c1ccc(-c2ccc(CNc3nc(-c4ccccn4)nnc3-c3ccccc3)cc2)cc1`
Result: < 1 µg/mL

Kindly consider the entry below.
Problem: Give solubility kinetic for the following compound: `CN(C)c1cccc(-c2ncnc(N3CCC(C(N)=O)CC3)n2)c1`
Result: > 48 µg/mL

----------
conditions: buffer; pH 7.4; 6.0 h; 150.0 µM
Outcome label depends on solubility kinetic relative to 30 µg/mL: at/above gives Fulfilled, below gives Not fulfilled.

Take a look at these entries with their results.
Problem: # check: solubility kinetic of `c1ccc(C2=Nn3c(nnc3-c3ccncc3)SC2)cc1` is greater than or equal to 30 µg/mL
Result: Not fulfilled

Problem: # check: solubility kinetic of `CCCCc1ccc(NC(=O)c2ccc3c(c2)N(S(C)(=O)=O)CC3)cc1` is greater than or equal to 30 µg/mL
Result: Not fulfilled

Problem: # check: solubility kinetic of O=C1CCC(CNC(=O)c2nc(-c3ccccc3)cc3[nH]ccc23)N1 (stereo not drawn) is greater than or equal to 30 µg/mL
Result: Fulfilled

Problem: # check: solubility kinetic of `NC(CO)(CO)CCc1ccc(Sc2cccc(OCc3ccccc3)c2)cc1Cl` is greater than or equal to 30 µg/mL
Result: Not fulfilled

Problem: # check: solubility kinetic of `Cc1ccc(C(N)=O)cc1Nc1nccc(-c2cn(C(C)C)c3cnccc23)n1` is greater than or equal to 30 µg/mL
Result: Fulfilled

Problem: # check: solubility kinetic of `CC(=O)Nc1cccc(-c2csc(Nc3cc(C)ccn3)n2)c1` is greater than or equal to 30 µg/mL
Result: Not fulfilled

Problem: # check: solubility kinetic of `COc1ccc(Nc2nc(-c3cccc(OC)c3)no2)cc1` is greater than or equal to 30 µg/mL
Result: Not fulfilled

Problem: # check: solubility kinetic of `CCN(CCO)CCCOc1ccc2c(Nc3cc(CC(=O)Nc4cccc(F)c4)[nH]n3)ncnc2c1` is greater than or equal to 30 µg/mL
Result: Fulfilled

Problem: # check: solubility kinetic of `Cc1cnc(N2CCC(C(N)=O)CC2)nc1-c1cccc(N(C)C)c1` is greater than or equal to 30 µg/mL
Result: Fulfilled

Problem: # check: solubility kinetic of `COc1ccc(-c2ccc(Nc3nc(-c4ccncc4)nc4ccccc34)cc2F)cc1F` is greater than or equal to 30 µg/mL
Result: Not fulfilled

Now look at this one.
Problem: # check: solubility kinetic of `CCOc1ccc(/C=C/c2nc3ccccc3n2S(=O)(=O)c2cccc(Cl)c2)cc1` is greater than or equal to 30 µg/mL
Result: Not fulfilled
